- experimental-target: F508delCFTR (Homo sapiens, UniProt P13569, DEL508-508)
- Construct: expressed in transfected cells; host or cells: CFBE41o- human lung-derived epithelial cells (CFBE4lo-F508delCFTR-HRP), doxycycline-inducible
- Sequence (P13569 with tags, fused parts or gaps DEL508-508): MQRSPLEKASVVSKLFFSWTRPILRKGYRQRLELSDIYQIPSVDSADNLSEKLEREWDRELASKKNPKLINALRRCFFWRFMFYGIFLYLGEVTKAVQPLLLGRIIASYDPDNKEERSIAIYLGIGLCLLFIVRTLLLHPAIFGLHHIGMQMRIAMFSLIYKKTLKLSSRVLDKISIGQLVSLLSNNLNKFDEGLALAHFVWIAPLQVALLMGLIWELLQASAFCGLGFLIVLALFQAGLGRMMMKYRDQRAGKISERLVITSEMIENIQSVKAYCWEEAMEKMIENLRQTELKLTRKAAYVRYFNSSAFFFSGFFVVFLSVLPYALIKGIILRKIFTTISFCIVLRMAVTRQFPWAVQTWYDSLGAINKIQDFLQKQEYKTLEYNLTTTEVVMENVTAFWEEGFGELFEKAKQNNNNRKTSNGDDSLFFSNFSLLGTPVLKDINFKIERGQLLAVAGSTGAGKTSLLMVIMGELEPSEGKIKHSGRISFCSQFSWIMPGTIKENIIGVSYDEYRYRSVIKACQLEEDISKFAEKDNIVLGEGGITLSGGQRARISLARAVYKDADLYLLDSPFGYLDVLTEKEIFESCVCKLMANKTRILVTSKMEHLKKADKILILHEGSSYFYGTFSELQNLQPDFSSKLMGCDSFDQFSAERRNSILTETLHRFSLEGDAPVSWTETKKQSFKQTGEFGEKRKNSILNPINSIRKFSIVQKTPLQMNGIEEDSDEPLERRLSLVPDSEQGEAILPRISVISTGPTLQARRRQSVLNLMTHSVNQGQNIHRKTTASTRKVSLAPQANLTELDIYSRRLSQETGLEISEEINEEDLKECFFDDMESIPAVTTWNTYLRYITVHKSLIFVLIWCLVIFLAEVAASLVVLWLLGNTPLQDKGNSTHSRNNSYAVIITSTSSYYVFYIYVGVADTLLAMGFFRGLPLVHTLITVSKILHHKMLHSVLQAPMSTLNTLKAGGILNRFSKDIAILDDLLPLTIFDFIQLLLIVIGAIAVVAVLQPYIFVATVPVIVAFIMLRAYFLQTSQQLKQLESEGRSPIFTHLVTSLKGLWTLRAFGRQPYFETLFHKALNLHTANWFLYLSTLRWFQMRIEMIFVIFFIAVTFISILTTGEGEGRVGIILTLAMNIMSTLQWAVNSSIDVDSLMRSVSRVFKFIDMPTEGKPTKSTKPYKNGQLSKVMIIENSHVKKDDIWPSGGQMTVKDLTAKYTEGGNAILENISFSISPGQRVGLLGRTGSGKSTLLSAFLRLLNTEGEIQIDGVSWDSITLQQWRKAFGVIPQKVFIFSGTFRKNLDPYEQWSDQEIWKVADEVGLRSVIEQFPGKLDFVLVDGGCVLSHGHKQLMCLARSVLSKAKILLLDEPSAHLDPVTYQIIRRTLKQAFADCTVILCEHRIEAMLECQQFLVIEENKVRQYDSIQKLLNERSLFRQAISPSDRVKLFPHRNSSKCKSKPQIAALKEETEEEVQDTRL
- assay-method-text: Cell Surface Expression-Horse Radish Peroxidase (CSE-HRP) Assay;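 further: percent of the 2 µM on-plate positive control corrector response above DMSO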
- Assay type: cell-based
- applied-conditions: without co-corrector; maximum at any tested concentration, normalized to on-plate positive control; read-out: Maximum % activity (without co-corrector)
// reported Emax for each item listed

{"molecule": "CCc1ccccc1[C@H]1[C@@H](NCc2cc(C3CCC3)cnc2OC)[C@H](C(C)(C)C)[C@@H](C(=O)O)N1C(=O)[C@@H]1CCCO1", "experimental-target": "F508delCFTR (Homo sapiens, UniProt P13569, DEL508-508)", "Emax": "> 200%"}
{"molecule": "COc1nc(C(C)(C)C)ccc1CN[C@H]1[C@H](C(C)(C)C)[C@@H](C(=O)O)N(C(=O)OC(C)C)[C@H]1c1ccccc1C(C)C", "experimental-target": "F508delCFTR (Homo sapiens, UniProt P13569, DEL508-508)", "Emax": "> 200%"}
{"molecule": "COc1ccc(C(F)(F)F)cc1CN[C@@H]1[C@@H](C(C)(C)C)[C@H](C(=O)O)N(C(=O)C(C)Oc2ccccc2)[C@@H]1c1ccccc1 (relative stereo)", "experimental-target": "F508delCFTR (Homo sapiens, UniProt P13569, DEL508-508)", "Emax": "< 100%"}

*Q* Check the records and state Emax for CCC(C)c1cnc(OC)c(CN[C@H]2[C@H](C(C)(C)C)[C@@H](C(=O)O)N(C(=O)C3CCCCC3)[C@H]2c2ccccc2)c1 (stereo partly shown)
*A* > 200%

*Q* In one line, give reported Emax of the entry COc1ccc(-c2ccccc2)cc1CN[C@H]1[C@H](C(C)(C)C)[C@@H](C(=O)O)N(C(=O)[C@@H]2CCC[C@@H](OC)C2)[C@H]1c1ccccc1 .
*A* > 200%

*Q* Give the measured Emax for COc1cccc([C@@H]2[C@H](NCc3cc(C(F)(F)F)ccc3OC)[C@@H](C(C)(C)C)[C@H](C(=O)O)N2C(=O)C2CCCCC2)n1 (racemic)
*A* 100 to 200%

*Q* Determine from records and report Emax for COc1ncc(C2CCC2)cc1CN[C@H]1[C@H](C(C)(C)C)[C@@H](C(=O)O)N(C(=O)C2CCCCC2)[C@H]1c1cccnc1N(C)C
*A* > 200%

*Q* Supply reported Emax belonging to this molecule: CC(C)(C)[C@H]1[C@H](NCc2cc(Cl)ccc2O)[C@H](c2ccccc2)N(C(=O)C2CCCCC2)[C@@H]1C(=O)O
*A* < 100%

*Q* Write down Emax measured for item COc1ccc(C(C)(C)C)cc1CN[C@H]1[C@H](C(C)(C)C)[C@@H](C(=O)O)N(C(=O)C(OC)C2CC2)[C@H]1c1ccccc1 (single isomer, unassigned)
*A* > 200%

*Q* Read the entry COc1ncc(C2CCC2)cc1CN[C@H]1[C@H](C(C)(C)C)[C@@H](C(=O)O)N(C(=O)[C@H]2CCCCO2)[C@H]1c1ccccc1C(C)C and write its reported Emax.
*A* > 200%

*Q* Provide Emax value for the following molecule: COc1ccc(C(C)(C)C)cc1CN[C@H]1[C@H](C(C)(C)C)[C@@H](C(=O)O)N(C(=O)C2OC[C@@H]3CCC[C@H]23)[C@H]1c1ccccc1 (relative stereo)
*A* > 200%

*Q* Fill in Emax for record CC(C)(C)[C@@H]1[C@@H](NCc2ccccc2OC(F)F)[C@@H](c2ccccn2)N(C(=O)C2CCCCC2)[C@H]1C(=O)O (racemic)
*A* < 100%

*Q* Provide measured Emax value, entry: COc1ccc(C(C)(C)C)cc1CN[C@H]1[C@H](C(C)(C)C)[C@@H](C(=O)O)N(C(=O)c2cnn3ccccc23)[C@H]1c1ccccc1
*A* < 100%
